# System: MCF7
# EXPERIMENTAL_PROTOCOL: Cytotoxicity against human MCF7 cells after 96 hrs by SRB assay
# COND: MCF7, 96 h

>  <CHEMICAL_SMILES>
CN1CCN(CCCCCNc2cc3c4c(c(NCCCCCN5CCN(C)CC5)cc5c4c2C(=O)N(CCCCCN2CCN(C)CC2)C5=O)C(=O)N(CCCCCN2CCN(C)CC2)C3=O)CC1

>  <MEASUREMENT_UNIT>
nM

>  <IC50>
196

$$$$
>  <CHEMICAL_SMILES>
CN1CCN(CCCCNc2cc3c4c(c(NCCCCN5CCN(C)CC5)cc5c4c2C(=O)N(CCCCN2CCN(C)CC2)C5=O)C(=O)N(CCCCN2CCN(C)CC2)C3=O)CC1

>  <MEASUREMENT_UNIT>
nM

>  <IC50>
100

$$$$
>  <CHEMICAL_SMILES>
CN1CCN(CCCNc2cc3c4c(c(NCCCN5CCN(C)CC5)cc5c4c2C(=O)N(CCCN2CCN(C)CC2)C5=O)C(=O)N(CCCN2CCN(C)CC2)C3=O)CC1

>  <MEASUREMENT_UNIT>
nM

>  <IC50>
167

$$$$

----------
# Test system: HPAC
# EXPERIMENTAL_PROTOCOL: Cytotoxicity against human HPAC cells after 96 hrs by SRB assay
Recorded IC50 for the following compounds
TEST_READOUT: IC50 (µM)

>  <CHEMICAL_SMILES>
CN1CCN(CCCNc2cc3c4c(c(NCCCN5CCN(C)CC5)cc5c4c2C(=O)N(CCCN2CCN(C)CC2)C5=O)C(=O)N(CCCN2CCN(C)CC2)C3=O)CC1

>  <MEASUREMENT_UNIT>
µM

>  <OBSERVED>
0.186

$$$$
>  <CHEMICAL_SMILES>
CN1CCN(CCCCNc2cc3c4c(c(NCCCCN5CCN(C)CC5)cc5c4c2C(=O)N(CCCCN2CCN(C)CC2)C5=O)C(=O)N(CCCCN2CCN(C)CC2)C3=O)CC1

>  <MEASUREMENT_UNIT>
µM

>  <OBSERVED>
0.117

$$$$
>  <CHEMICAL_SMILES>
CN1CCN(CCCCCNc2cc3c4c(c(NCCCCCN5CCN(C)CC5)cc5c4c2C(=O)N(CCCCCN2CCN(C)CC2)C5=O)C(=O)N(CCCCCN2CCN(C)CC2)C3=O)CC1

>  <MEASUREMENT_UNIT>
µM

>  <OBSERVED>
0.205

$$$$

Each recorded value in this set is attributed to ChEMBL document CHEMBL1268966.
